Just for reference, patent US20210230570 is where these values come from.

target: plasma purified human AT-III (antithrombin III), in complex with full-length unfractionated heparin (AT-III/UFH)
MEASURED PROPERTY: K0.5-mut/K0.5-wt (against Catalyst Biosciences WT FIXa)
Answers are plain numbers.

// input: 2 proteins below; output: K0.5-mut/K0.5-wt (against Catalyst Biosciences WT FIXa) for each
1. FIXa-D104N/K106S/Y155F/K228N/K247N/N249S (protein) chain 1: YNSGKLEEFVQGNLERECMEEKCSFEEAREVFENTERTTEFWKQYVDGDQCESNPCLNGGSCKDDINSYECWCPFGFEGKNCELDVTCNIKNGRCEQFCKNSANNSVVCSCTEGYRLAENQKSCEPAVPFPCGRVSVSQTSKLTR chain 2: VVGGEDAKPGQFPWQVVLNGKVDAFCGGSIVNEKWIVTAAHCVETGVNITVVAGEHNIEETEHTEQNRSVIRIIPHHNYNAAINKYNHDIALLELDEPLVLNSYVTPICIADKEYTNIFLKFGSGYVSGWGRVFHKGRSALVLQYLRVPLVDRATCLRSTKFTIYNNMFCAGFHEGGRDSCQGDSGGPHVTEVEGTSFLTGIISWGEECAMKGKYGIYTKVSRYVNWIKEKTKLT
2. FIXa-Y155F/K228N/K247N/N249S (protein) chain 1: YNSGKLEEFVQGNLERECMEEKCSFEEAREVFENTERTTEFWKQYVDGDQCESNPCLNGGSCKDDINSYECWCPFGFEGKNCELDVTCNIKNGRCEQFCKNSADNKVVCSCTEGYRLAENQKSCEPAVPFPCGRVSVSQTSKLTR chain 2: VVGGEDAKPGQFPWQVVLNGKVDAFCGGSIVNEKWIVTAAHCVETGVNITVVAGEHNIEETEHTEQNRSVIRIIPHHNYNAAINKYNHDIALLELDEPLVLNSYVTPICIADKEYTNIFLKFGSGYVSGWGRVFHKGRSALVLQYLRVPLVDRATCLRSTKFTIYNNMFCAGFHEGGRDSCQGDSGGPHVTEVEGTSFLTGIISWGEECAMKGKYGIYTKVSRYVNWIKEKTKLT

[1.6, 1.4]
